Test: chemical genetic growth profiling, strain panel (AID 1159580);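 note: tested at 20 µM; growth read once vehicle control cultures reached saturation at 30 °C; 1 = growth at the plate median or of vehicle wells; lower values mean less growth of the strain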
Conditions: S. cerevisiae deletion strains, growth OD, locus YIL125W, strain kgd1
The whole screen tested about 5,500 compounds, of which about 2,000 (36%) were called active. About 18% were inconclusive and are not listed. Cut-off read from the data, not from the text of the source: active = normalized growth mostly below about 0.91 (no sharp cut-off); inconclusive = no clear call, values can overlap the other calls; inactive = mostly above about 0.92. This is one part of the list.
Allowed answers: active, inactive

IN: So what was the verdict on CCCCCC(=O)O[C@]1(C(C)=O)CCC2C3CCC4=CC(=O)CC[C@]4(C)C3CC[C@@]21C (stereo not given in full) in this test?
OUT: inactive

---

Assay: chemical genetic growth profiling, strain panel (AID 1159580)
Details: S. cerevisiae deletion strains, growth OD, locus YLR320W, strain mms22, stronger effect = lower value
Among all 5,500 compounds or so, about 2,000 (36%) were called active. Roughly 18% stayed inconclusive and do not appear here. The list shows a part of the results.
resultType: normalized growth
Numbers only.

Below: 10 compounds and their reported normalized growth.
>>> recordedmeasurement("COC(=O)[C@@H]1C(O)CC[C@H]2CN3CCc4c([nH]c5ccccc45)[C@@H]3C[C@@H]21 (some centres undefined)")
1.01
>>> recordedmeasurement("O=[N+]([O-])O[C@H]1CO[C@H]2[C@@H]1OC[C@H]2O[N+](=O)[O-]")
0.979
>>> recordedmeasurement("CCCCCCCC/C=C/CCCCCCCCOP(=O)([O-])OCC[N+](C)(C)C")
0.066
>>> recordedmeasurement("NC(N)=Nc1nc(CSCCC(N)=NS(N)(=O)=O)cs1")
1.01
>>> recordedmeasurement("COc1ccc2c(c1)[C@@]1(C)CCC(=O)C[C@H]1CC2")
0.966
>>> recordedmeasurement("COC(=O)C1[C@H]2C[C@H]3c4[nH]c5ccccc5c4CCN3C[C@@H]2CC[C@@H]1O (some centres undefined)")
1.02
>>> recordedmeasurement("CNc1ccccc1C(=O)N1CCc2c([nH]c3ccccc23)C1=O")
1
>>> recordedmeasurement("CCC(C(=O)O)c1ccccc1 (centres undefined)")
0.989
>>> recordedmeasurement("Cc1ccc2c(c1)CC[C@H]1CC(=O)CC[C@]21C")
0.977
>>> recordedmeasurement("CCCCCCCCCCCCCCCCOP(=O)([O-])OCC[N+](C)(C)C")
0.0754

Give one value of normalized growth per listed compound.
1. COc1cccc([C@]2(O)CCCC[C@H]2CN(C)C)c1
2. NC/C=C/C(=O)O
3. CC(C)[C@H](N)C(=O)OCCOCn1cnc2c(=O)[nH]c(N)nc21
4. CN=C(NC#N)NCCSCc1nc[nH]c1C

OUT:
[0.964, 1.01, 0.971, 0.982]

---

Test: chemical genetic growth profiling, strain panel (AID 1159580)
Settings: S. cerevisiae deletion strains, growth OD, locus YPL051W, strain arl3, stronger effect = lower value
Hit rate of the full screen: of about 5,500 compounds, about 2,000 (36%) were called active. Another 18% or so got no clear call; they are omitted. This is one part of the list.
Please go through the items and note down their normalized growth.
Numbers only.

Some compounds with known normalized growth results, for comparison:
>>> recordedmeasurement("CC(=O)CC(=O)CCC(=O)O")
1.01
>>> recordedmeasurement("CCCCCC(=O)O[C@]1(C(C)=O)CCC2C3CCC4=CC(=O)CC[C@]4(C)C3CC[C@@]21C (stereo not given in full)")
1.01
>>> recordedmeasurement("CC(=O)O[C@]1(C(C)=O)CCC2C3C[C@H](C)C4=CC(=O)CC[C@]4(C)C3CC[C@@]21C (stereo not given in full)")
0.937
>>> recordedmeasurement("Cn1cc[nH]c1=S")
0.98

Please turn your attention to the following entry.
IN: Form field: reported normalized growth of CC1(C)S[C@@H]2[C@H](NC(=O)[C@H](NC(=O)N3CCNC3=O)c3ccccc3)C(=O)N2C1C(=O)O (stereo not given in full)
OUT: 0.99

---

Experiment: chemical genetic growth profiling, strain panel (AID 1159580)
Conditions: S. cerevisiae deletion strains, growth OD, locus YDL134C, strain PPH21, stronger effect = lower value
In all, about 5,500 compounds went through this assay and about 2,000 (36%) were called active. Roughly 18% stayed inconclusive and do not appear here. Some of the results follow.
resultType: normalized growth
Numbers only.

Worked set:
>>> recordedmeasurement("C[N+](C)(C)CCOP(=O)([O-])OP(=O)(O)OC[C@H]1OC(n2ccc(N)nc2=O)[C@H](O)[C@@H]1O (some centres not stated)")
1.01
>>> recordedmeasurement("COc1ccc(C(=O)c2ccccc2O)c(O)c1")
0.933
>>> recordedmeasurement("COC(=O)c1cc(OC)c(OC)c(OC)c1NS(=O)(=O)c1cc(OC)ccc1OC")
1.02

Please supply normalized growth for each of the following items, keeping them in order.
1. Nc1cc(-c2ccc(Cl)cc2)nc(N)n1
2. CCCCOc1ccc(CC(=O)NO)cc1
3. COc1ccc(-c2coc3c(OC)c(OC)ccc3c2=O)cc1

OUT:
1: 0.959; 2: 0.965; 3: 0.924

---

Assay: chemical genetic growth profiling, strain panel (AID 1159580);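 note: tested at 20 µM; growth read once vehicle control cultures reached saturation at 30 °C; 1 = growth at the plate median or of vehicle wells; lower values mean less growth of the strain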
Conditions: S. cerevisiae deletion strains, growth OD, locus YOR119C, strain RIO1
In all, about 5,500 compounds went through this assay and about 2,000 (36%) were called active. Roughly 18% stayed inconclusive and do not appear here. Rule as the data show it: active = normalized growth mostly below about 0.91 (no sharp cut-off); inconclusive = no clear call, values can overlap the other calls; inactive = mostly above about 0.92. Some of the results follow.
Allowed answers: t for active, f for inactive

>>> cat("C=CC(=O)N1CCc2cc([N+](=O)[O-])ccc21")
"t"

IN: GET /call?item= O=C(NCc1ccco1)c1ccc(Oc2cc(Cl)cc(Cl)c2)o1 returns the recorded outcome of this test.
OUT: f

IN: Now try Cn1cncc1S(=O)(=O)/C(C#N)=C/c1ccccc1Sc1ccc(Cl)cc1 .
OUT: f

IN: Now try CC(C)(C)C1=NN(c2nc3ccc(Cl)cc3s2)C(=O)C1 .
OUT: t

IN: Please give the result for S=C(Nc1cc(-c2cccs2)[nH]n1)Nc1ccccc1Cl too.
OUT: f

IN: Then what about the compound O=C(Nc1cc(Cl)cc(Cl)c1)Nc1cc(-c2ccco2)[nH]n1 ?
OUT: t

IN: And then O=C(Nc1cc(Cl)cc(Cl)c1)Nc1cc(-c2cccs2)[nH]n1 , what is it?
OUT: f

IN: What about Cc1c(C(=O)N2CCCCC2)cc(-c2ccccc2)n1-c1ccccc1 ?
OUT: f

IN: Repeat with Cc1c(Cl)cccc1NC(=S)N1CCCN(c2ccc(C(F)(F)F)cc2[N+](=O)[O-])CC1
OUT: f

IN: Now give it for O=C(Nc1c(Br)c(C2CC2)nn1-c1ccccc1)C(Cl)(Cl)Cl too.
OUT: f

IN: Lookup O=C(CCN1CCCCC1)c1ccc(-c2ccccc2)cc1
OUT: f

IN: Would you mind doing NC(N)=Nc1nc(-c2cc(Cl)sc2Cl)cs1 as well?
OUT: f

IN: Then what about the compound NCCCN=c1ccc2c3c1c(O)c1c(O)ccc(=O)c1c3[nH]n2CCNCCO ?
OUT: f

IN: Record: O=[N+]([O-])c1cc(C(F)(F)F)ccc1-n1ccc(-c2cccs2)n1
OUT: f

---

Test: chemical genetic growth profiling, strain panel (AID 1159580);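 note: tested at 20 µM; growth read once vehicle control cultures reached saturation at 30 °C; 1 = growth at the plate median or of vehicle wells; lower values mean less growth of the strain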
Conditions: S. cerevisiae deletion strains, growth OD, locus YPR141C, strain kar3, stronger effect = lower value
About 2,000 (36%) of roughly 5,500 compounds were called active. About 18% were inconclusive and are not listed. Some of the results follow.
resultType: normalized growth
Numbers only.

Each of the following entries comes with a recorded value; kindly state normalized growth for each.
1. CCc1ccc(CCOc2ccc(CC3SC(=O)NC3=O)cc2)nc1 (centres undefined)
2. c1ccc(CC2=NCCN2)cc1
3. CNC1(C)C2CCC(C2)C1(C)C (centres undefined)
4. O=C(O)c1cc(=O)c2cc(Cl)ccc2[nH]1
5. S=C=NCc1ccccc1
6. C1CCc2nnnn2CC1
7. CN1CCc2cc3c(cc2C1O)OCO3 (centres undefined)

OUT:
1: 0.994; 2: 0.767; 3: 0.968; 4: 1.01; 5: 0.0705; 6: 1; 7: 0.978

Batch lookup, normalized growth per entry.
1. CC(C)[N+](C)(CCOC(=O)C1c2ccccc2Oc2ccccc21)C(C)C
2. CCCCCC(C)N (centres undefined)
3. CC(C)=CCc1c(O)cc(C)oc1=O
4. CCC1(c2ccccc2)C(=O)NCNC1=O

OUT:
1: 1.01; 2: 0.99; 3: 0.954; 4: 0.989

For each of the items listed, what is its normalized growth?
1. C[N+](C)(C)CC(=O)[O-]
2. O=C(O)c1cc(=O)c2ccc(Cl)cc2[nH]1
3. CCc1cccc(C)c1N(C(=O)CCl)C(C)COC (centres undefined)

OUT:
1. 0.979
2. 0.99
3. 1.02

---

Test: chemical genetic growth profiling, strain panel (AID 1159580);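 note: tested at 20 µM; growth read once vehicle control cultures reached saturation at 30 °C; 1 = growth at the plate median or of vehicle wells; lower values mean less growth of the strain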
Conditions: S. cerevisiae deletion strains, growth OD, locus YHR129C, strain ARP1, stronger effect = lower value
About 2,000 (36%) of roughly 5,500 compounds were called active. Not shown: some 18% with an inconclusive outcome. The list shows a part of the results.
resultType: normalized growth
Answers are plain numbers.

In the examples that follow, each entry is paired with its recorded normalized growth.
>>> recordedmeasurement("CCOC(=O)/C=C(\\C)OP(=O)(OC)OC")
0.974
>>> recordedmeasurement("Oc1ccc(O)cc1")
1.01
>>> recordedmeasurement("COc1ccc([C@@H]2CC(=O)c3c(O)cc(O)cc3O2)cc1O")
1

Respectfully, I request normalized growth for each entry included below.
1. c1ccc(CC2=NCCN2)cc1
2. NC(=O)c1ncn([C@@H]2O[C@H](CO)[C@@H](O)[C@H]2O)c1O
3. CC1(C)C2CC[C@]3(C)C(C(=O)C=C4[C@@H]5C[C@@](C)(C(=O)O)CC[C@]5(C)CC[C@]43C)[C@@]2(C)CC[C@@H]1O (some centres undefined)

OUT:
[0.958, 1.01, 1.07]

Record normalized growth per entry; entries follow.
1. C=CCc1ccc2c(c1)OCO2
2. O=C(O)c1cc(=O)c2cc(Cl)ccc2[nH]1
3. CCC1(c2ccc(N)cc2)CCC(=O)NC1=O (centres undefined)
4. O=C1CC(c2ccc(O)cc2)Oc2ccccc21 (centres undefined)

OUT:
1: 1; 2: 1.02; 3: 0.999; 4: 0.795

Look at each compound and report its normalized growth.
1. COC(=O)c1c(Cl)c(Cl)c(C(=O)OC)c(Cl)c1Cl
2. C=C(C)/C=C1/C=CC(=O)C(C)=C1
3. Cc1c(N(C)C)c(=O)n(-c2ccccc2)n1C
4. N#Cc1c(Cl)c(Cl)c(Cl)c(C#N)c1Cl
5. CC1(C)C2CC[C@]3(C)C(C(=O)C=C4[C@@H]5C[C@@](C)(C(=O)O)CC[C@]5(C)CC[C@]43C)[C@@]2(C)CC[C@@H]1OC(=O)CCC(=O)O (some centres undefined)
6. O=C(O)C1CC([C@@H]2CCCCN2)CN2CCCCC12 (some centres undefined)

OUT:
[0.996, 0.107, 0.993, 1, 0.991, 1.01]

Field: normalized growth. Fill in for each record below.
1. CC1(C)S[C@@H]2[C@H](NC(=O)[C@H](NC(=O)N3CCNC3=O)c3ccccc3)C(=O)N2C1C(=O)O (some centres undefined)
2. COc1cc(OC)c2c(c1)OC(c1ccccc1)CC2=O (centres undefined)
3. CC(C)=CCc1c(O)cc(C)oc1=O
4. CC1(C)C2CC[C@]3(C)C(C(=O)C=C4[C@H]5C[C@@](C)(C(=O)O)CC[C@]5(C)CC[C@]43C)[C@@]2(C)CC[C@@H]1O (some centres undefined)
5. CCC1(c2ccccc2)C(=O)NCNC1=O

OUT:
0.997
0.986
1.02
1.06
1.01
